Data provenance: patent EP4786492A1

- Target Or Test System: DLL3 endogenously expressed on NCI-H82 cells (UniProt Q9NYJ7)
- Sequence (Q9NYJ7 27-618): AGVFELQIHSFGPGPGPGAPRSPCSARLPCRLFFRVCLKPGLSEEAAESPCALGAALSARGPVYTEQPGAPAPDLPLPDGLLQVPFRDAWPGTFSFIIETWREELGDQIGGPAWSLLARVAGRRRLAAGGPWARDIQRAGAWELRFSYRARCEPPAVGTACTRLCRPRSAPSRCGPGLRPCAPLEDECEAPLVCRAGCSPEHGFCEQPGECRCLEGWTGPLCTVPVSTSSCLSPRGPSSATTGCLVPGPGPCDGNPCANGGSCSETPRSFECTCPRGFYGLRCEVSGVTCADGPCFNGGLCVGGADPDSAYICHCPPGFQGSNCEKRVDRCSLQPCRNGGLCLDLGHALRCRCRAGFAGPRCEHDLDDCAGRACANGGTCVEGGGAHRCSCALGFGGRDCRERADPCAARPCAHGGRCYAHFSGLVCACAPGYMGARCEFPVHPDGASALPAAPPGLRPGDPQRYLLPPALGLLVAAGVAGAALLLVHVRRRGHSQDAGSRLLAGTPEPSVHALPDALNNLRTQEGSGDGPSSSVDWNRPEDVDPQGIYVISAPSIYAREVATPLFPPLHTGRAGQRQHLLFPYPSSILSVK
- Test Details: FACS on NCI-H82 cells; antibody 0.0064 nM
Entries annotated with measured MFI
The answer should be written as a number, with no unit following it.

These solved cases illustrate the format of a correct answer.
binder="mab014 scFv-hFc (Fc fusion, part only; not given: Linker and human IgG1 Fc, not shown: a dimerising Fc or GST) chain, part: DIQMTQSSSSFSVSLGDRVTITCKASEDIYNRLAWYQQKPGNTPRLLISGATSLETGVPSRFSGSGSGKDFTLSITSLQTEDVATYYCQQYWSLPWTFGGGTKLEIKEVQLHQSGPELVKPGTSVKISCKASGYTFTDYYMNWVKQSHGKSLEWIGDINPNHGDTGYNQKFTGKATLTVDKSSSTAYMELRSLTSEDSAVYYCARNFFYYGTTYGWYFDVWGTGTTVTVSS" reported_result=134
binder="mab006 scFv-hFc (Fc fusion, part only; not given: linker and human IgG1 Fc, not shown: a dimerising Fc or GST) chain, part: DVQITQSPSYLAASPGETITINCRATKSISKYLAWYQEKPGKTNKLLIFSGSTLQSGIPSRFRGSGSGTDFTLTISSLEPEDFAMYYCQQHHEYPYTFGGGTKLEIKQVQLQQPGAELVRPGTSVKLSCKASGYTFTSYWMHWVRQRPGQGLEWIGVIDPSDSLANYNQEFKGKATLTVDTSSSTAYMQLSSLTSEDSAVYYCARDSTVVAPMDYWGQGTSVTVSS" reported_result=177

GET /value?item= Hab015VL5VH6a-hFc (scFv, part only; not given: scFv linker and human IgG1 Fc, V domains shown, not shown: another chain or arm of the molecule; a dimerising Fc or GST; small tags and cut ends) VL: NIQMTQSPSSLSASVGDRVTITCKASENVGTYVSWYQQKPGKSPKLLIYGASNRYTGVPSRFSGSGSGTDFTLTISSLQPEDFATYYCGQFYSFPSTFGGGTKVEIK VH: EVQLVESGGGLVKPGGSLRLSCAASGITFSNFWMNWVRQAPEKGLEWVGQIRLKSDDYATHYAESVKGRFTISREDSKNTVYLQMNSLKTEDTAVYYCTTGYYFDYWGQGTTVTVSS &field=MFI returns 127
